These measurements were taken from patent US7709516B2.

System: rat prostate, seminal vesicle, levator ani muscle
experimentSummary: Systemic antiandrogenic activity in orchidectomized immature male rats with DHT implant
Assay type: in vivo
measurementParameters: Rattus norvegicus, 168 h, read-out: Lev Ani % inhibition, Table 1; rat +DHT, s.c. or p.o. (route not marked), levator ani, 0.5 mg/animal daily 7 days
Values of inhibition in vivo at 0.5 mg greater than or equal to 10% map to 1; values below map to -1.

1) CCC(NC(C)C)c1ccc(OCCCN2C(=S)N(c3ccc(C#N)c(C(F)(F)F)c3)C(=O)C2(C)C)cc1 (centres unmarked) [EM-7203]    -1
2) Cc1cc(CNC(C)C)ccc1OCCCN1C(=S)N(c2ccc(C#N)c(C(F)(F)F)c2)C(=O)C1(C)C [EM-7297]    1
3) COc1cc(CNC(C)C)ccc1OCCCN1C(=S)N(c2ccc(C#N)c(C(F)(F)F)c2)C(=O)C1(C)C [EM-7930]    1
4) CC(C)NC(C)c1ccc(OCCCN2C(=S)N(c3ccc(C#N)c(C(F)(F)F)c3)C(=O)C2(C)C)cc1 (centres unmarked) [EM-7234]    1
5) CC(C)NCc1ccc(OCCCN2C(=S)N(c3ccc(C#N)c(C(F)(F)F)c3)C(=O)C2(C)C)cn1 [EM-7926]    1
